The reported measurements were obtained from patent US20260137703A1.

// reported pIC50 per item
Target: Phospho-EGFR (Tyr1068) in H1975 C797S cells (CRISPR-edited EGFR C797S) (Homo sapiens, UniProt P00533, C797S/L858R/T790M)
Sequence (P00533 25-1210 T790M/C797S/L858R): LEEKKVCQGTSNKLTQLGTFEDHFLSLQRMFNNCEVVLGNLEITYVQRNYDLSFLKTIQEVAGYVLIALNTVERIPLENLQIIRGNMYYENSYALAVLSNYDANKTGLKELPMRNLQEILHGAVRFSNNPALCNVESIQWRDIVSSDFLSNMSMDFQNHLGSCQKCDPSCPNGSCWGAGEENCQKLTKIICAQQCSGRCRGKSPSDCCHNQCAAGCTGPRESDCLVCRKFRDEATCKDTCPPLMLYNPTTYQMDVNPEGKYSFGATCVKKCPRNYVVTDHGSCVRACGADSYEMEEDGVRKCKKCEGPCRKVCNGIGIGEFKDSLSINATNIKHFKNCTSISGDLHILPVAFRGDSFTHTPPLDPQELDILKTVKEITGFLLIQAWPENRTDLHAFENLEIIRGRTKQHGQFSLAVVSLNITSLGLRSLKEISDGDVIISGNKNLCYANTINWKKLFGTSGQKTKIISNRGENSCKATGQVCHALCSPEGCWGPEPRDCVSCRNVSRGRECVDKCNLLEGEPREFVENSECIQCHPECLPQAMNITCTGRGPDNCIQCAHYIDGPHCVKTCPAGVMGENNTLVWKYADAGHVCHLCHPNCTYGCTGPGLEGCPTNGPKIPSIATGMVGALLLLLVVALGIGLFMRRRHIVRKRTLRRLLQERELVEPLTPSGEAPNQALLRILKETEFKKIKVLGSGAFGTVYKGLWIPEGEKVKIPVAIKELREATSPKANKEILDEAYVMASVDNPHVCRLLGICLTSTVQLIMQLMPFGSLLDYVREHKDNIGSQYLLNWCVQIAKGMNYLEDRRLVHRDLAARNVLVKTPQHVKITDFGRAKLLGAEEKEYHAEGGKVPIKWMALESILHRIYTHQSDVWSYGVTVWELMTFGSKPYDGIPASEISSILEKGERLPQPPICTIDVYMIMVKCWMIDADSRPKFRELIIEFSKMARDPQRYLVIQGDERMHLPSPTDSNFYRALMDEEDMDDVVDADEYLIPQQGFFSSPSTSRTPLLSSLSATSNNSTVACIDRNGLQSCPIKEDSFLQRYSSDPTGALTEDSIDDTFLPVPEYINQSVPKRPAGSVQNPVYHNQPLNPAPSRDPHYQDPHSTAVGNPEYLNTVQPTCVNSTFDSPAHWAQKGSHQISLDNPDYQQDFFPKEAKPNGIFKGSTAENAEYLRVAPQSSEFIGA
Assay: HTRF pEGFR/total EGFR in H1975 C797S cells
Details: ratio pEGFR/total EGFR, compound 3 hours
pIC50: −log10 of the molar value.
MEASURED ENDPOINT: pIC50

In [3]: df
Out[3]:
                                   compound  measured_endpoint  value_observed
0  C#Cc1cc(=O)n(C2CCCCC2)c2nc(Nc3ccc(N4CCN(C)CC4)cc3)ncc12 [Example 68]              pIC50    6.00 to 6.30
1  C#Cc1cc(=O)n(C)c2nc(Nc3ccc(N4CCN(C)CC4)c(OCCc4ccnn4C)c3)ncc12 [Example 220]              pIC50          > 6.30
2  C#Cc1cc(=O)n2c3nc(ncc13)Nc1ccc(N3CCN(C)CC3)c(c1)CCOCC2 [Example 240]              pIC50          > 6.30
3  C#Cc1cc(=O)n(-c2ccccc2)c2nc(Nc3ccc(N4CCC(N5CC(C(C)(C)O)C5)CC4)cc3)ncc12 [Example 40]              pIC50          > 6.30
4  C=Cc1cc(=O)n(-c2ccc(OC)cc2)c2nc(Nc3ccccc3OC)ncc12 [Example 157]              pIC50          < 5.52
5  C#Cc1cc(=O)n([C@H]2CC[C@@H](NC(=O)CCCN(C)C)CC2)c2nc(Nc3ccc(N4CCN(C)CC4)cc3)ncc12 [Example 97]              pIC50    5.52 to 6.00
6  C#Cc1cc(=O)n(-c2ccccc2)c2nc(Nc3ccc(N4CCC(N5CC(CO)C5)CC4)cc3)ncc12 [Example 28]              pIC50          > 6.30
